Reported EC50 values for the following molecules.
- assay-target: UniProtKB Q14833
- Sequence (Q14833 33-912): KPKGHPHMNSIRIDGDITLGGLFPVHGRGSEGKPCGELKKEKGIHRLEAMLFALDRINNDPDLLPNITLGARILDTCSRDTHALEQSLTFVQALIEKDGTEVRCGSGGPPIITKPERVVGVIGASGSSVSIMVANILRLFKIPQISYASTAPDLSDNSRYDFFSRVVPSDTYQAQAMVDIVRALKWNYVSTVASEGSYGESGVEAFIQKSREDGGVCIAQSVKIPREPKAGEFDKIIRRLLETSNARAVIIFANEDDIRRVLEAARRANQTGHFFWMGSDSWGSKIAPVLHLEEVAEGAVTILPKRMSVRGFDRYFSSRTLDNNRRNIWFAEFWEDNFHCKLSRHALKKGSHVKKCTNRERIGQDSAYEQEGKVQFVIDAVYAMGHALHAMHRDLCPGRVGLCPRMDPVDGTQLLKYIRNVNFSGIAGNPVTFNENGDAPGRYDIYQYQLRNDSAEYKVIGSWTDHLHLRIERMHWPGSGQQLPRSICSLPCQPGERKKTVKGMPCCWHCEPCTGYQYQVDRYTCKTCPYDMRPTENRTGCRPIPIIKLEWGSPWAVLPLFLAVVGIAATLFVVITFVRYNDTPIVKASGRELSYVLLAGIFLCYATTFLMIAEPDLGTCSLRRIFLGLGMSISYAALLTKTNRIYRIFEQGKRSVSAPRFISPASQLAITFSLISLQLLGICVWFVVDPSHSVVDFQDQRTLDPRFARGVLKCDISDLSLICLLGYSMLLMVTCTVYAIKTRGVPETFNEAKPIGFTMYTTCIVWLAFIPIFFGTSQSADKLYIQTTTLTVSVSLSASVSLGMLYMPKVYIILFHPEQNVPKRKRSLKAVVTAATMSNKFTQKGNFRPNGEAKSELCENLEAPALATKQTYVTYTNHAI
- assay-notes: Ca2+ mobilization in vitro assay on recombinant human mGlu4 expressed in HEK293 cells (PAM)
- Format: cell-based
- condition-parameters: HEK293 cells, human mGlu4, in presence of EC20 of L-AP4; read-out: EC50 (nM) mGlu4PAM
Provide the reading as a plain figure in nM.

These recorded examples may help you get a feel for the data.
{"molecule": "Cc1ccc(N2CCN3C(=O)N(c4c(F)cc(C#Cc5ccccc5)cc4F)C(=O)CC3(C)C2=O)nn1 (racemic)", "observable": "EC50", "numeric-result": 198}
{"molecule": "C[C@@]12CC(=O)N(c3c(F)cc(C#Cc4ccccc4)cc3F)C(=O)N1CCN(c1ccccn1)C2=O", "observable": "EC50", "numeric-result": 46}
{"molecule": "COCCN1CCN2C(=O)N(c3c(F)cc(C#Cc4ccccc4)cc3F)C(=O)C[C@@]2(C)C1=O", "observable": "EC50", "numeric-result": 137}
{"molecule": "Cc1ccnc(N2CCN3C(=O)N(c4c(F)cc(C#Cc5ccccc5)cc4F)C(=O)C[C@@]3(C)C2=O)c1", "observable": "EC50", "numeric-result": 131}

Data request, read-out EC50, for C[C@@]12CC(=O)N(c3c(F)cc(C#Cc4ccccc4)cc3F)C(=O)N1CCN(Cc1ccc(F)cc1)C2=O
147

Data request, read-out EC50, for CC12CC(=O)N(c3c(F)cc(C#Cc4ccccc4)cc3F)C(=O)N1CCN(c1cncnc1)C2=O (racemic)
145

Data request, read-out EC50, for O=C1C2CC(=O)N(c3c(F)cc(C#Cc4ccccc4)cc3F)C(=O)N2CCN1c1ccncn1 (racemic)
85

Data request, read-out EC50, for Cc1cc(N2CCN3C(=O)N(c4c(F)cc(C#Cc5ccccc5)cc4F)C(=O)CC3(C)C2=O)nc(C)n1 (racemic)
177

Data request, read-out EC50, for C[C@@]12CC(=O)N(c3c(F)cc(C#Cc4ccccc4)cc3F)C(=O)N1CCN(c1cnc(OC3CC3)nc1)C2=O
171

Data request, read-out EC50, for C[C@@]12CC(=O)N(c3c(F)cc(C#Cc4ccccc4)cc3F)C(=O)N1CCN(c1ccc(Cl)nc1)C2=O
73

Data request, read-out EC50, for Cn1cc(N2CCN3C(=O)N(c4c(F)cc(C#Cc5ccccc5)cc4Cl)C(=O)C[C@@]3(C)C2=O)cn1
75
